# System Tested: PI3Kβ
# Sequence (Q8BTI9 whole entry): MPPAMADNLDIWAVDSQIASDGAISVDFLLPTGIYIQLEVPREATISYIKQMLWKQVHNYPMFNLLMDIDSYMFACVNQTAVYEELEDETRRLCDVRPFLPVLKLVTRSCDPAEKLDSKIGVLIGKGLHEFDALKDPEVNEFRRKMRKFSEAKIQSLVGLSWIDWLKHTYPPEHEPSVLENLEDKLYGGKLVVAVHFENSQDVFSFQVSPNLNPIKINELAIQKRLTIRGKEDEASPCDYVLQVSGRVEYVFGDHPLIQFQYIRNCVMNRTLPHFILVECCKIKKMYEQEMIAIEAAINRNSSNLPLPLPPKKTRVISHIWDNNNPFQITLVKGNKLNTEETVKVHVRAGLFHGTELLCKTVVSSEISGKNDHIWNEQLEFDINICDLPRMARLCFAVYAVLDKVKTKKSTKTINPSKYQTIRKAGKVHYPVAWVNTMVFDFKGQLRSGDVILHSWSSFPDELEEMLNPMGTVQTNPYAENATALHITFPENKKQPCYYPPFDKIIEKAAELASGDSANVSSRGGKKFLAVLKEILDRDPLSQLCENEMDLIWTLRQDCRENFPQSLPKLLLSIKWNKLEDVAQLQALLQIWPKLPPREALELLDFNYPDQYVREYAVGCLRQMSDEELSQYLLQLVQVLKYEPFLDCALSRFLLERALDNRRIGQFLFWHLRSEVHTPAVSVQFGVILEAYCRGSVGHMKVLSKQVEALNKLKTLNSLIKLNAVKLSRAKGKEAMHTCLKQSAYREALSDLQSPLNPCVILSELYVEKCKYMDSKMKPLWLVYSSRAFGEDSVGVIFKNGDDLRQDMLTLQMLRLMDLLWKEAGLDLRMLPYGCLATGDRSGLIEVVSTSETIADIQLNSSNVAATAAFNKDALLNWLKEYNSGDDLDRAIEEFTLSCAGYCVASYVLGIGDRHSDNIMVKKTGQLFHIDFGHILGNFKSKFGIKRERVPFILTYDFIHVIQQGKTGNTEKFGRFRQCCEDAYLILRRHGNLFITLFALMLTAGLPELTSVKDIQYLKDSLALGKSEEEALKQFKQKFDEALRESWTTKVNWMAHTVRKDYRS
# Measurement Notes: PI3 Kinase HTRF assay, PI3Kβ
# Assay type: biochemical, human
# Assay Context: 10 μM PIP2, 10 μM ATP; 'Less than 100 nM'; read-out: PI3K β IC50
pIC50: −log10 of the molar value.
Value Type: pIC50

Query :: Can you share its pIC50? I mean this compound: C[C@H](Nc1ccnn2ccnc12)c1cc2cccc(Cl)c2c(=O)n1-c1ccccc1 [II-10]
Result :: > 7.00

Query :: Another: C[C@H](Nc1ncnc2scnc12)c1cc2cccc(C(F)(F)F)c2c(=O)n1-c1ccccc1 [III-5]
Result :: > 7.00

Query :: Another: C[C@H](Nc1nc(N)nc2cccnc12)c1cc2cccc(Cl)c2c(=O)n1-c1ccccc1 [Compound I-92]
Result :: > 7.00

Query :: Another: C[C@H](Nc1cc(N)ncc1C(N)=O)c1cc2cccc(Cl)c2c(=O)n1-c1ccccc1 [IV-24]
Result :: > 7.00

Query :: Another: C[C@H](Nc1nc(N)nc2[nH]cnc12)c1cc2cccc(C(F)(F)F)c2c(=O)n1-c1ccccc1 [III-17]
Result :: > 7.00

Query :: Another: C[C@H](Nc1ncnc2cccnc12)c1cc2cccc(Cl)c2c(=O)n1C1CC1 [Compound I-23]
Result :: > 7.00

* * *

# System Tested: PI3Kβ
# Measurement Notes: PI3 Kinase HTRF assay, PI3Kβ
# Format: biochemical, human
# Assay Context: 10 μM PIP2, 10 μM ATP; 'Greater than 10 μM' and 'Greater than 1 μM to 10 μM'; read-out: PI3K β IC50
The reader will find reported IC50 values listed item by item below.

Query :: Can you share its IC50? I mean this compound: COc1cncc(-c2cccc3cc([C@H](C)Nc4nc(N)nc5cccnc45)n(-c4ccccc4)c(=O)c23)c1 [Compound I-58]
Result :: 1 to 10 µM

Query :: Another: CCOC(=O)c1cnc(N[C@@H](C)c2cc3cccc(-c4ccnc(OC)c4)c3c(=O)n2-c2ccccc2)nc1N [IV-25]
Result :: > 10 µM

Query :: Another: COc1ncc(-c2cccc3nc([C@H](C)Nc4nc(N)nc5cccnc45)n(-c4ccccc4)c(=O)c23)cn1 [Compound I-86]
Result :: > 10 µM

Query :: Another: CNc1cccc2cc([C@H](C)Nc3nc(N)nc4cccnc34)n(-c3ccccc3)c(=O)c12 [Compound I-101]
Result :: > 10 µM

Query :: Another: COc1ncc(-c2cccc3cc([C@H](C)Nc4ccnc5ccnn45)n(-c4ccccc4)c(=O)c23)cn1 [II-47]
Result :: > 10 µM

Query :: Another: C[C@H](Nc1ncnc2[nH]cnc12)c1cc2cccc(C(F)(F)F)c2c(=O)n1-c1cccc(F)c1 [III-13]
Result :: 1 to 10 µM

---
Query :: Can you share its IC50? I mean this compound: C[C@H](Nc1ccnn2ccnc12)c1cc2cccc(-c3cnn(C)c3)c2c(=O)n1C1CC1 [II-45]
Result :: 1 to 10 µM

Query :: Another: C[C@H](Nc1cc(Cl)ncc1C#N)c1cc2cccc(Cl)c2c(=O)n1-c1ccccc1 [IV-23]
Result :: > 10 µM

Query :: Another: C[C@H](Nc1cc(Cl)nn2ccnc12)c1cc2cccc(C(F)(F)F)c2c(=O)n1-c1cccc(F)c1 [III-14]
Result :: > 10 µM

Query :: Another: C[C@H](NCc1cccnc1N)c1cc2cccc(Cl)c2c(=O)n1-c1ccccc1 [IV-8]
Result :: > 10 µM

Query :: Another: C[C@H](Nc1ccnc2ccnn12)c1cc2cccc(-c3cnn(C)c3)c2c(=O)n1-c1ccccc1 [II-5]
Result :: 1 to 10 µM

* * *

The reader will find reported IC50 values listed item by item below.
# System Tested: PI3Kβ
# Measurement Notes: PI3 Kinase HTRF assay, PI3Kβ
# Assay type: biochemical, human
# Assay Context: 10 μM PIP2, 10 μM ATP; 'Greater than 10 μM' and 'Greater than 1 μM to 10 μM'; read-out: PI3K β IC50

Query :: Can you share its IC50? I mean this molecule: C[C@H](Nc1ncnc2cccnc12)c1cc2cc(F)ccc2c(=O)n1-c1ccccc1 [Compound I-6]
Result :: > 10 µM

Query :: Another: C[C@H](Nc1nc(N)nc2cccnc12)c1cc2cccc(-c3cncnc3)c2c(=O)n1-c1ccccc1 [Compound I-74]
Result :: 1 to 10 µM

Query :: Another: C[C@H](Nc1ncnc2ccnn12)c1cc2cccc(C(F)(F)F)c2c(=O)n1-c1ccccc1 [III-21]
Result :: 1 to 10 µM

---
Query :: Can you share its IC50? I mean this molecule: Cc1ncc(-c2cccc3nc([C@H](C)Nc4nc(N)nc5cccnc45)n(-c4ccccc4)c(=O)c23)cn1 [Compound I-91]
Result :: > 10 µM

* * *

# System Tested: PI3Kβ
# Measurement Notes: PI3 Kinase HTRF assay, PI3Kβ
# Type: biochemical, human
# Assay Context: 10 μM PIP2, 10 μM ATP; 'Greater than 10 μM' and 'Greater than 1 μM to 10 μM'; read-out: PI3K β IC50
pIC50: −log10 of the molar value.
Value Type: pIC50

Query :: Find the measured pIC50: item C[C@H](Nc1ccnc2cccnc12)c1cc2cccc(C(F)(F)F)c2c(=O)n1-c1ccccc1 , target or system PI3Kβ.
Result :: 5.00 to 6.00

Query :: Another: C[C@H](Nc1ncnc2cccnc12)c1cc2c(F)cccc2c(=O)n1-c1ccccc1
Result :: 5.00 to 6.00

Query :: Another: C[C@H](Nc1nc(N)nc2cccnc12)c1cc2cccc(-c3cnn(C)c3)c2c(=O)n1C1CC1
Result :: 5.00 to 6.00

* * *

# System Tested: PI3Kβ
# Measurement Notes: PI3 Kinase HTRF assay, PI3Kβ
# Type: biochemical, human
# Assay Context: 10 μM PIP2, 10 μM ATP; 'Greater than 10 μM' and 'Greater than 1 μM to 10 μM'; read-out: PI3K β IC50
Value Type: IC50

Solved entries:
Query :: Can you share its IC50? I mean this compound: COc1ncc(-c2cccc3cc([C@H](C)Nc4ccnn5ccnc45)n(-c4ccccc4)c(=O)c23)cn1
Result :: > 10 µM

Query :: Another: COc1ccc(CNc2nc(N[C@@H](C)c3cc4cccc(-c5cnc(OC)nc5)c4c(=O)n3-c3ccccc3)c3ncccc3n2)cc1
Result :: 1 to 10 µM

Query :: Another: CNc1nc(N[C@@H](C)c2cc3cccc(Cl)c3c(=O)n2-c2ccccc2)c2ncccc2n1
Result :: 1 to 10 µM

Query :: Another: C[C@H](NCc1cnc2cccnn12)c1cc2cccc(Cl)c2c(=O)n1-c1ccccc1
Result :: > 10 µM

Query :: Another: C[C@H](Nc1c(C#N)cnc2cccnc12)c1cc2cccc(Cl)c2c(=O)n1-c1ccccc1
Result :: > 10 µM

---
Query :: Can you share its IC50? I mean this compound: C[C@H](Nc1ccnc2ccnn12)c1cc2cccc(-c3cnn(C)c3)c2c(=O)n1-c1cccc(F)c1
Result :: > 10 µM

Query :: Another: C[C@H](Nc1cc(Cl)nn2ccnc12)c1cc2cccc(-c3cnn(C)c3)c2c(=O)n1C1CC1
Result :: > 10 µM

Query :: Another: C[C@H](Nc1nc(Cl)nc2cccnc12)c1cc2cccc(-c3cnn(C)c3)c2c(=O)n1-c1ccccc1
Result :: > 10 µM

Query :: Another: COc1ncc(-c2cccc3cc([C@H](C)Nc4nc(N)nc5cccnc45)n(-c4cccc(F)c4)c(=O)c23)cn1
Result :: > 10 µM

Query :: Another: Cc1cc(-c2cccc3cc([C@H](C)Nc4ncnc5cccnc45)n(-c4ccccc4)c(=O)c23)ccn1
Result :: 1 to 10 µM

Query :: Another: C[C@H](Nc1ccnn2ccnc12)c1cc2cccc(-c3cnn(C)c3)c2c(=O)n1-c1cccc(F)c1
Result :: > 10 µM

* * *

The reader will find reported IC50 values listed item by item below.
# System Tested: PI3Kβ
# Measurement Notes: PI3 Kinase HTRF assay, PI3Kβ
# Type: biochemical, human
# Assay Context: 10 μM PIP2, 10 μM ATP; 'Greater than 10 μM' and 'Greater than 1 μM to 10 μM'; read-out: PI3K β IC50

Solved entries:
Query :: Can you share its IC50? I mean this compound: C[C@H](Nc1nc(N)nc2cccnc12)c1cc2cccc(-c3ccnnc3)c2c(=O)n1-c1cccc(F)c1 [Compound I-80]
Result :: > 10 µM

Query :: Another: C[C@H](Nc1nc(Cl)nc2nc(Cl)cnc12)c1cc2cccc(Cl)c2c(=O)n1-c1ccccc1 [IV-19]
Result :: > 10 µM

Query :: Another: C[C@H](Nc1ccnc2ccnn12)c1cc2scc(-c3cnn(C)c3)c2c(=O)n1-c1ccccc1 [II-21]
Result :: > 10 µM

In the following, a different compound is considered.
Query :: Can you share its IC50? I mean this compound: Cc1cccc2cc([C@H](C)Nc3ncnc4cccnc34)n(-c3cccc(F)c3)c(=O)c12 [Compound I-70]
Result :: 1 to 10 µM

Values were extracted from patent US8969363B2.
